Tested on: COLO 205
assay name: NCI tumour cell line growth inhibition, 48 h
Activity calls are given as the source filed them. No stated cut-off is given here; in the data, active = GI50 up to about 1.1 µM and inactive = higher.
test readout: GI50

Look up GI50: O=c1cnn(C2OC(C(O)CO)C(O)C2O)c(=O)[nH]1 (stereo not given)
> 100 µM (inactive)

Try CC(=O)Nc1ccc(C(=O)NN2C(=O)C(Cl)C2c2ccc([N+](=O)[O-])cc2)cc1 (stereo not given) next.
> 100 µM (inactive)

Try CCOc1ccc2nc(NC(=O)C(=O)C(C#N)CC(C)(C)C=O)sc2c1 (stereo not given) next.
> 100 µM (inactive)

Try CC12CCC([C@H](Nc3cc(C(F)(F)F)cc(C(F)(F)F)c3)C1=O)C2(C)C (stereo not given in full) next.
> 100 µM (inactive)

Try COc1ccc(Cc2ccccc2C(=O)O)c2ccccc12 next.
17.9 µM (inactive)
